Sourced from patent US20220017615A1

Molecular target: T1, His-tagged CD47 recombinant protein, CD47-His (human, UniProt Q08722 19-141, limits assumed)
T1 construct: it is not restated for CD47-His; also called human CD47-His protein; antigen CD47-His; not shown: His tag
Experiment: ELISA on coated CD47-His; Ab 0.107 nM
Value Kind: OD450 nm

Query block: Entry 132D1E5 (antibody, V domains shown, Murine hybridoma antibody purified on protein G) VH: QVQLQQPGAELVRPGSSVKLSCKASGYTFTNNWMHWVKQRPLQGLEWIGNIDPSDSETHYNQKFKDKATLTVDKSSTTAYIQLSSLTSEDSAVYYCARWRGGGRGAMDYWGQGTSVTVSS VL: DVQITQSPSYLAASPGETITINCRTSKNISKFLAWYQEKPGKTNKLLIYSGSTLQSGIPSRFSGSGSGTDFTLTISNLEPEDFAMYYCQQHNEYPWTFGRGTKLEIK : reported OD450 nm = ?
Result block: 1.83

More entries:
Query block: Entry 25E3B5 (antibody, V domains shown, Murine hybridoma antibody purified on protein G) VH: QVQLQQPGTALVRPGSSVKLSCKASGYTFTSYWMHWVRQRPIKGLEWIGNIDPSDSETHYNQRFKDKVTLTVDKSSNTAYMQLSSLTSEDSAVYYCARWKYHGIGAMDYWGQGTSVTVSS VL: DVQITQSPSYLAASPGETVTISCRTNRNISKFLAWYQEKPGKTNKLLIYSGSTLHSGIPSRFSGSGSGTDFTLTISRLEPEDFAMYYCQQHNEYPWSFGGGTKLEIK : reported OD450 nm = ?
Result block: 1.68
